TARGET UNDER TEST: HCV genotype 1b (BK) NS3 modified enzyme with a R155K mutation (Hepatitis C virus genotype 1b, UniProt P26663, R1181K)
Construct: HCV genotype 1b (BK) NS3 modified enzyme
ASSAY NOTES: HCV NS3 protease time-resolved fluorescence (TRF) assay, genotype 1b R155K
Assay type: biochemical
EXPERIMENTAL SETUP: Ki 1b R155K, genotype 1b (BK) NS3 R155K; single value
pKi: −log10 of the molar value.

{"COMPOUND": "C=C[C@@H]1C[C@]1(NC(=O)[C@@H]1C[C@@H]2CN1C(=O)[C@H](C1CCCC1)NC(=O)O[C@@H]1CCC[C@H]1CC/C=C/Cc1c(nc3ccccc3c1OCCCO)O2)C(=O)NS(=O)(=O)C1CC1", "COMPARATIVE SIGN": ">", "pKi": 10.80}
{"COMPOUND": "C=C[C@@H]1C[C@]1(NC(=O)[C@@H]1C[C@@H]2CN1C(=O)[C@H](C(C)(C)C)NC(=O)O[C@@H]1C[C@H]1CCCCCc1c(nc3ccccc3c1OC1CCN(CC3CC3)CC1)O2)C(=O)NS(=O)(=O)C1(C)CC1", "COMPARATIVE SIGN": "=", "pKi": 10.19}
{"COMPOUND": "C=C[C@@H]1C[C@]1(NC(=O)[C@@H]1C[C@@H]2CN1C(=O)[C@H](C(C)(C)C)NC(=O)O[C@@H]1C[C@H]1CCCCCc1c(nc3ccccc3c1OCC1CN(CC)CCO1)O2)C(=O)NS(=O)(=O)C1(C)CC1 (stereo partly drawn)", "COMPARATIVE SIGN": "=", "pKi": 9.96}
{"COMPOUND": "C=C[C@@H]1C[C@]1(NC(=O)[C@@H]1C[C@@H]2CN1C(=O)[C@H](C(C)(C)C)NC(=O)O[C@@H]1C[C@H]1CCCCCc1c(nc3ccccc3c1OCCCN1CCCCC1)O2)C(=O)NS(=O)(=O)C1(C)CC1", "COMPARATIVE SIGN": "=", "pKi": 10.24}
{"COMPOUND": "C=C[C@@H]1C[C@]1(NC(=O)[C@@H]1C[C@@H]2CN1C(=O)[C@H](C1CCCCC1)NC(=O)O[C@@H]1C[C@H]1CCCCCc1c(nc3ccccc3c1OCCCN1CCN(S(C)(=O)=O)CC1)O2)C(=O)NS(=O)(=O)C1(C)CC1", "COMPARATIVE SIGN": "=", "pKi": 9.62}
{"COMPOUND": "C=C[C@@H]1C[C@]1(NC(=O)[C@@H]1C[C@@H]2CN1C(=O)[C@H](C(C)(C)C)NC(=O)O[C@@H]1C[C@H]1CCCCCc1c(nc3ccccc3c1OCCN1CC3(CCC3)C1)O2)C(=O)NS(=O)(=O)C1(C)CC1", "COMPARATIVE SIGN": "=", "pKi": 9.24}
{"COMPOUND": "C=C[C@@H]1C[C@]1(NC(=O)[C@@H]1C[C@@H]2CN1C(=O)[C@H](C(C)(C)C)NC(=O)O[C@@H]1C[C@H]1CCCCCc1c(nc3ccccc3c1OCCCN(C)Cc1nc3cc(C)ccc3[nH]1)O2)C(=O)NS(=O)(=O)C1(C)CC1", "COMPARATIVE SIGN": "=", "pKi": 9.80}
{"COMPOUND": "C=C[C@@H]1C[C@]1(NC(=O)[C@@H]1C[C@@H]2CN1C(=O)[C@H](C1CCCC1)NC(=O)O[C@@H]1CCC[C@H]1CC/C=C/Cc1c(nc3ccccc3c1OCc1ccccc1)O2)C(=O)NS(=O)(=O)C1(C)CC1", "COMPARATIVE SIGN": "=", "pKi": 9.09}
{"COMPOUND": "C=C[C@@H]1C[C@]1(NC(=O)[C@@H]1C[C@@H]2CN1C(=O)[C@H](C(C)(C)C)NC(=O)O[C@@H]1C[C@H]1CCCCCc1c(nc3cc(C(C)C)ccc3c1OCCCN1C[C@@H]3C[C@H]1CO3)O2)C(=O)NS(=O)(=O)C1(C)CC1", "COMPARATIVE SIGN": "=", "pKi": 10.02}
